# assay.system: T1, 4H3410-AA
# T1 chain: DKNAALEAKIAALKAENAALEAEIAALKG
# assay.protocol: two-hybrid library CCmax;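 further: natural log of median RNA to DNA barcode read ratio; higher means stronger binding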
# particulars: mean of both orientations
test.readout: interaction score

binder="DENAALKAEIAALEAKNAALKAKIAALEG [4H1597-AA]" test_readout="interaction score" endpoint_value=2

P. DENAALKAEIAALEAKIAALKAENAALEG [4H1579-AA]
Q. DKNAALEAEIAALEAKNAALKAEIAALKG [4H3130-AA]
Input: From the recorded data, which exceeds the other in interaction score: P or Q ? Your answer should be the label of the entry you select.
Output: Q
(Q: 2.07, P: -1.51)

P. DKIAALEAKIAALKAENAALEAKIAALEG [4H2389-AA]
Q. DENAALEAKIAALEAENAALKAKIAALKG [4H1310-AA]
R. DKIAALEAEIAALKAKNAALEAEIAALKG [4H2162-AA]
Input: Arrange items by their interaction score values in increasing order. Sort the labels as requested; that list is your answer.
Output: P, R, Q
